System: MIA (pancreatic cancer) cell genome
EXPERIMENT_SUMMARY: ctDNA coculture with MIA cells, whole genome sequencing: genomic insertion sites, transposons at insertion points and SNVs (pancreatic cancer)
Format: cell-based, human
CONDITION_PARAMETERS: TABLE 4; number of single nucleotide variants (SNVs or SNPs) identified; polynucleotides for pancreatic cancer cells
READOUT_NAME: No. SNP

35 (nucleic acid, listed as Homo sapiens) AAGATGGGGAGGATGGTGGTGGAGCAGGCTGGGGAGATGAGGAGCTTGAGGGGCCTAGGAGCTAACCACCCATTCACTGTTTATGGGTGGGGTGGCTCCGGGCAGGTGGCCTGACCCCTCTAAACCTCAGTTTCCCCATCTGTAAAATGGGAGTAATTGTACCTGCCTCACGGGCATGTAGCAGGTGGGAGAGAGAGTAATACGGGCAAGACGTCTAGTGCAGTGGCTGGAACATAACAAGCACCCAGCAAGTGGTGGCCCCATTGCT : 0
